TARGET: NEK2 (Homo sapiens)
Construct: purchased ReactionBiology
Sequence (P51955 whole entry): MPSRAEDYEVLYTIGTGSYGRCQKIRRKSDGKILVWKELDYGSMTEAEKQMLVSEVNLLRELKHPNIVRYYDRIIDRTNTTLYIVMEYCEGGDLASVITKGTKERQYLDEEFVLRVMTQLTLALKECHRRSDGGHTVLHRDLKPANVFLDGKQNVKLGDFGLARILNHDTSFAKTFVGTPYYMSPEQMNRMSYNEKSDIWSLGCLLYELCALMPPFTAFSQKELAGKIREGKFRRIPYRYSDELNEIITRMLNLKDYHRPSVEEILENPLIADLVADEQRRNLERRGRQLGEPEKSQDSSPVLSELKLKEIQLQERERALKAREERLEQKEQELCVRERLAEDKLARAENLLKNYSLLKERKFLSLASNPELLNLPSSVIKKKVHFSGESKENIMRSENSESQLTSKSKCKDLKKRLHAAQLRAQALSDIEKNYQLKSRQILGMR
METHOD: Kinase activity test (ReactionBiology), % enzyme activity relative to DMSO;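 for % Enzyme Activity (relative to DMSO controls), Average: FDA-approved drugs chosen by structure-based repositioning, each screened at 10 or 1 µM for kinase activity, expressed as percent of DMSO controls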
Format: biochemical
CONDITION DETAILS: NEK2; compound at 10 uM; average of Data 1 and Data 2
READOUT: % Enzyme Activity (relative to DMSO controls), Average (%)
Numbers only, in %.

For every item below, please supply its % Enzyme Activity (relative to DMSO controls), Average.
1. CC(=O)OCC1=C(C(=O)O)N2C(=O)[C@@H](NC(=O)Cc3cccs3)[C@H]2SC1 [Cephalothin]
2. Cc1ccc(C(=O)c2ccc(CC(=O)O)n2C)cc1 [Tolmetin]

1. 78.52
2. 107.09

====

TARGET: NEK2 (Homo sapiens)
Construct: purchased ReactionBiology
METHOD: Kinase activity test (ReactionBiology), % enzyme activity relative to DMSO
Format: biochemical
CONDITION DETAILS: NEK2; 1 uM; replicate Data 2; read-out: % Enzyme Activity (relative to DMSO controls), Data 2
Provide the reported remaining activity at 1 µM of each item.
Answers are plain numbers, in %.

// worked examples, remaining activity at 1 µM included
N[C@@H](CC(=O)N1CCn2c(nnc2C(F)(F)F)C1)Cc1cc(F)c(F)cc1F [Sitagliptin] = 95.5
CC/C(=C(/CC)c1ccc(O)cc1)c1ccc(O)cc1 [Diethylstilbestrol, reference compound] = 101
N[C@@H](Cc1cc(I)c(Oc2cc(I)c(O)c(I)c2)c(I)c1)C(=O)O [Thyroxine, reference compound] = 89.1

Give me measured remaining activity at 1 µM, please, for this molecule: Nc1ccc2cc3ccc(N)cc3nc2c1 [Proflavine, reference compound]
104

====

TARGET: VEGFR2 (Homo sapiens)
Sequence (P35968 20-1356): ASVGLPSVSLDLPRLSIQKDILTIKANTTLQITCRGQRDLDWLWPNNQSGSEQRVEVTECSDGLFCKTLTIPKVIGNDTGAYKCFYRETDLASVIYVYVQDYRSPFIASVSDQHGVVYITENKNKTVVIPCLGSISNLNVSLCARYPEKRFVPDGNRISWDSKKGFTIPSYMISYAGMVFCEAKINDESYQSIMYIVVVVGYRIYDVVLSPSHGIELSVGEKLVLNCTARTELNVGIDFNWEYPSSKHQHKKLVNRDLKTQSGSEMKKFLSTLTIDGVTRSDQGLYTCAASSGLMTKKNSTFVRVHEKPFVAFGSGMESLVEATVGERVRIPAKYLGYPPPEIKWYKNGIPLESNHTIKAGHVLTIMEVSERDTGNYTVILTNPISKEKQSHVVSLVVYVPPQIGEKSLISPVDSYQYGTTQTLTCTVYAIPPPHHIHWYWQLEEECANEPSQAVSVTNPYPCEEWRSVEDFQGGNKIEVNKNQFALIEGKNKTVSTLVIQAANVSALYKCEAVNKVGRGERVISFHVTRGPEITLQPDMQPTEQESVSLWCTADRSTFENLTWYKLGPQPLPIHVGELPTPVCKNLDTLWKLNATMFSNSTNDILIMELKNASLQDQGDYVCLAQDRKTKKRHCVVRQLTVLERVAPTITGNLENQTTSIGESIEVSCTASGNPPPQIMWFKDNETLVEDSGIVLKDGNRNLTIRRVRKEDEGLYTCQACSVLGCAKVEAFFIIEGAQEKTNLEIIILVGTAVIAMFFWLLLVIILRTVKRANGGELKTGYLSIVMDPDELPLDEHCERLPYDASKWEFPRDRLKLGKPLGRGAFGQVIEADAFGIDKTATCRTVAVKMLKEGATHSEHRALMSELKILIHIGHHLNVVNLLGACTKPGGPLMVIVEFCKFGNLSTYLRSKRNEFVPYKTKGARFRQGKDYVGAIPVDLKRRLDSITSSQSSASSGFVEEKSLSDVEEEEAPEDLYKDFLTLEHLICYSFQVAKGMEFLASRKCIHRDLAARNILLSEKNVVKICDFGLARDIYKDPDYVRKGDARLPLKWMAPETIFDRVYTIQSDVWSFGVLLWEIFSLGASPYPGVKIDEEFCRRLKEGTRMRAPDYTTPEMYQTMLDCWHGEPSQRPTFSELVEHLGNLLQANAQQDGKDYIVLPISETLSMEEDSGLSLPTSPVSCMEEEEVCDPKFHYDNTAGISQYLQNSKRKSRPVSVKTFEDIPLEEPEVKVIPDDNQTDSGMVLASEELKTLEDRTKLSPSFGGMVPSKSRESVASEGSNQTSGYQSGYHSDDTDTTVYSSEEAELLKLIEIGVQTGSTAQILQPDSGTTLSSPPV
METHOD: Kinase activity test (ReactionBiology), % enzyme activity relative to DMSO;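 for % Enzyme Activity (relative to DMSO controls), Data 1: VEGFR2 was one member of a ten-kinase screening panel testing marketed FDA-approved drugs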
Type: biochemical
Set-up: purchased ReactionBiology
CONDITION DETAILS: VEGFR2; 10 uM; replicate Data 1
Kindly supply the reported % Enzyme Activity (relative to DMSO controls), Data 1 values for the records listed here.
Note: state the figure and append the unit.

C[C@]12CC[C@@H]3c4ccc(O)cc4CC[C@H]3[C@@H]1CCC2=O = 105.29%
CC(C)CN(C[C@@H](O)[C@H](Cc1ccccc1)NC(=O)O[C@H]1CO[C@H]2OCC[C@H]21)S(=O)(=O)c1ccc(N)cc1 = 98.21%
CCCc1nn(C)c2c(=O)[nH]c(-c3cc(S(=O)(=O)N4CCN(C)CC4)ccc3OCC)nc12 = 111.96%

Please give % Enzyme Activity (relative to DMSO controls), Data 1 for each item listed below.
1. CC(=O)[C@]1(O)Cc2c(O)c3c(c(O)c2[C@@H](O[C@H]2C[C@H](N)[C@H](O)[C@H](C)O2)C1)C(=O)c1ccccc1C3=O
2. CN(C)CCCN1c2ccccc2Sc2ccc(Cl)cc21

105.86%
105.24%

Record % Enzyme Activity (relative to DMSO controls), Data 1 per entry; entries follow.
1. COc1ccc2c3c1O[C@H]1C[C@@H](O)C=C[C@@]31CCN(C)C2
2. O=C1Nc2ccc(Cl)cc2[C@@](C#CC2CC2)(C(F)(F)F)O1
3. COc1ccc2c(c1)c(CC(=O)O)c(C)n2C(=O)c1ccc(Cl)cc1
4. CN1[C@@H]2CC[C@H]1C[C@@H](OC(=O)c1c[nH]c3ccccc13)C2
5. CN[C@H]1CC[C@@H](c2ccc(Cl)c(Cl)c2)c2ccccc21

1. 95.78%
2. 95.58%
3. 106.14%
4. 102.27%
5. 107.3%
